target: chymotrypsin-like activity of the 20S proteasome (Homo sapiens, UniProt P20618+P28074); construct: purified human placenta 20S proteasome; tissue Diabetes Forschungsinstitut, Düsseldorf, Germany; host or cells: human placenta; test: Inhibition of the chymotrypsin-like activity of the 20S proteasome (Suc-LLVY-AMC hydrolysis); assay type: biochemical; settings: purified human placenta 20S proteasome, Suc-LLVY-AMC substrate, read-out: IC50 [μM] (results of one or two experiments)
endpoint: IC50 (µM)

Would you please look over these solved cases?
Q. Given the entry COc1ccc(C[C@H](Nc2cccc(-c3ccccc3)c2)C(=O)N[C@@H](C)C(=O)N[C@@H](CC(C)C)B2O[C@@H]3C[C@@H]4C[C@@H](C4(C)C)[C@]3(C)O2)cc1OC , report its measured IC50.
A. 0.0018

Q. Query (compound): COc1cc(C[C@H](Nc2cccc(C(C)C)c2)C(=O)N[C@H](C(=O)N[C@@H](CC(C)C)B(O)O)C(C)C)cc(OC)c1OC ; field requested: IC50
A. 0.0038

Q. Consider the compound COc1cc(C[C@H](Nc2cccc(C(C)C)c2)C(=O)N[C@@H](C)C(=O)N[C@@H](CC(C)C)B2O[C@@H]3C[C@@H]4C[C@@H](C4(C)C)[C@]3(C)O2)cc(OC)c1OC and give its measured IC50.
A. 0.0013

[1] COc1cc(C[C@H](Nc2cccc(-c3ccccc3)c2)C(=O)N[C@@H](C)C(=O)N[C@@H](CC(C)C)B2O[C@@H]3C[C@@H]4C[C@@H](C4(C)C)[C@]3(C)O2)cc(OC)c1OC
[2] COc1ccc(C[C@H](Nc2cccc(-c3ccccc3)c2)C(=O)N[C@@H](C)C(=O)N[C@@H](CC(C)C)B(O)O)c(OC)c1OC
Q. Please indicate which entry, 1 or 2 , has the lower recorded IC50 value. // output: label of the selected item
A. 1
